Reference source: patent US20250163047A1

testedOn: Cbl (aa49-434) (Homo sapiens)
Construct: Cbl (aa49-434, in-house); made in house
Sequence (P22681 49-434): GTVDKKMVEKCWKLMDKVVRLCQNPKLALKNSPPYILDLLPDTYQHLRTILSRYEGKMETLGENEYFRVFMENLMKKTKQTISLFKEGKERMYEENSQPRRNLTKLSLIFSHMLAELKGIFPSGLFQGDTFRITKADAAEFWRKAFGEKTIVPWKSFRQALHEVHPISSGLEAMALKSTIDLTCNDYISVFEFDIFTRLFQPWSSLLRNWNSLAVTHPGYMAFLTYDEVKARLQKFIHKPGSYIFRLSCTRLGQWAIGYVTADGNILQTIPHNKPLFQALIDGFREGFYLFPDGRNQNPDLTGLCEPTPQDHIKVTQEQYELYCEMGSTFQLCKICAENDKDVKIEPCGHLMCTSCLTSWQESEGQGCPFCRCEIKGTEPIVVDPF
experiment: Co-expressed Cbl with BirA biochemical assay (CBL/E2-Ub binding, HTRF)
setupConditions: 0.6 nM Cbl co-expressed with BirA, read-out: co-express CBL/E2-Ub-binding assay IC50
pIC50: −log10 of the molar value.
Short version: pIC50 at least 8 is rule met, less is rule not met.

Consider the worked cases shown below.
[[record]]
compound = "Cn1cnnc1C[C@]1(c2cccc(NC(=O)c3cc(CNC4(C)CC4)c4c(n3)C(C)(C)CN4)c2)C[C@H](C#N)C1 [Compound C44]"
class = "rule met"

[[record]]
compound = "Cn1cnnc1[C@]1(c2cccc(NC(=O)c3cc(CNCC4CCC4)c4c(n3)C(F)(F)CC4)c2)C[C@H](C)C1 [Compound C56]"
class = "rule met"

[[record]]
compound = "Cn1cnnc1[C@]1(c2cccc(NC(=O)c3cc(CNC4(C)CC4)cc4c(Cl)cnn34)c2)C[C@H](C)C1 [Compound A96]"
class = "rule met"

[[record]]
compound = "C[C@H]1CCCN(Cc2cc(C(=O)Nc3cccc([C@]4(c5nncn5C)C[C@@H](CC#N)C4)c3)c3nccn3c2)C1 [Compound A3]"
class = "rule not met"

[[record]]
compound = "C[C@H](NCc1cc(C(=O)Nc2cccc([C@]3(c4nncn4C)C[C@@H](C)C3)c2)c2nccn2c1)C1CCC1 [Compound A70]"
class = "rule met"

[[record]]
compound = "Cn1cnnc1[C@]1(c2cccc(NC(=O)c3cc(CNCC4CCC4)cn4c(F)cnc34)c2)C[C@H](C)C1 [Compound A52]"
class = "rule met"


Does pIC50 meet or surpass 8 for C[C@H]1CCCN(Cc2cc(C(=O)Nc3cccc([C@]4(c5nncn5C)C[C@@H](CC#N)C4)c3)n3ncc(F)c3c2)C1 [Compound A20] ?
rule not met

----------
Exercise: state measured pIC50 for each of the compounds provided.
testedOn: Cbl-b (aa36-427) (Homo sapiens, UniProt Q13191)
Construct: Cbl-b (aa36-427, in-house); made in house
Sequence (Q13191 36-427): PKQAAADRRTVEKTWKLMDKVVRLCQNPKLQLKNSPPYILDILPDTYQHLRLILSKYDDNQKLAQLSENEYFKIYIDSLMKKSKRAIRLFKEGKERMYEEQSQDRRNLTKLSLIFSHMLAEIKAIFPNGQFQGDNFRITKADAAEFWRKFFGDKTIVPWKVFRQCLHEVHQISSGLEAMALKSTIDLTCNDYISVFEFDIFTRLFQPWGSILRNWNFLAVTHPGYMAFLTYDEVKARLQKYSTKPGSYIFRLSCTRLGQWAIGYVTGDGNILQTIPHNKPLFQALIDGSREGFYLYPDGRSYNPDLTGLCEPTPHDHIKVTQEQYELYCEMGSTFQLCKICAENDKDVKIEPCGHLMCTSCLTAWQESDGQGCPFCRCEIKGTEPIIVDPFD
experiment: Co-expressed Cbl-b with BirA biochemical assay (CBLB/E2-Ub binding, HTRF)
setupConditions: 0.6 nM Cbl-b co-expressed with BirA, HTRF; read-out: co-express CBLB/E2-Ub-binding assay IC50
Give bare numbers, as −log10 of the molar value.

[[record]]
smi = "Cc1c[nH]c2c(CN3CCC[C@H](C)C3)cc(C(=O)Nc3cccc([C@]4(c5nncn5C)C[C@@H](CC#N)C4)c3)nc12"
readoutlabel = "pIC50"
reading = 8.70

[[record]]
smi = "Cc1cnc2c(C(=O)Nc3cncc([C@]4(c5nncn5C)C[C@@H](C)C4)c3)cc(CN[C@@H](C)C3CC3)cn12"
readoutlabel = "pIC50"
reading = 8.66

[[record]]
smi = "Cn1cnnc1C[C@]1(c2cccc(NC(=O)c3cc(CNCC4(C)CCCC4)c4[nH]ccc4n3)c2)C[C@H](C#N)C1"
readoutlabel = "pIC50"
reading = 8.44

[[record]]
smi = "C[C@H]1CCCN(Cc2cc(C(=O)Nc3cccc([C@]4(Cc5nncn5C)C[C@@H](C#N)C4)c3)nc3c2OCC3(C)C)C1"
readoutlabel = "pIC50"
reading = 9.10

[[record]]
smi = "Cn1cnnc1[C@]1(c2cccc(NC(=O)c3cc(CNC4(C)CC4)c4c(n3)C(C)(C)CC4)c2)C[C@H](CC#N)C1"
readoutlabel = "pIC50"
reading = 8.80


Now for the compound whose pIC50 we want.
With Cbl-b (aa36-427) (Homo sapiens, UniProt Q13191) as the test system, Cn1cnnc1[C@]1(c2cncc(NC(=O)c3cc(CNC4(C)CC4)cn4ccnc34)c2)C[C@H](C)C1 showed pIC50 of 8.77

----------
testedOn: Cbl-b (aa36-427) (Homo sapiens, UniProt Q13191)
Construct: Cbl-b (aa36-427, in-house); made in house
experiment: Co-expressed Cbl-b with BirA biochemical assay (CBLB/E2-Ub binding, HTRF)
setupConditions: 0.6 nM Cbl-b co-expressed with BirA, HTRF; read-out: co-express CBLB/E2-Ub-binding assay IC50
Assign pIC50 to each entry below.
One number for each entry, as −log10 of the molar value.

[[record]]
smi = "Cn1cnnc1[C@]1(c2cccc(NC(=O)c3cc(CNC4(C)CC4)cn4ncnc34)c2)C[C@H](C)C1"
reading = 8.82

[[record]]
smi = "Cn1cnnc1[C@]1(c2cccc(NC(=O)c3cc(CNCC4(C)CCCC4)cn4ccnc34)c2)C[C@H](CC#N)C1"
reading = 9.05

[[record]]
smi = "C[C@@H]1CN(Cc2cc(C(=O)Nc3cccc([C@]4(c5nncn5C)C[C@@H](C)C4)c3)nc3c2CCC3(C)C)CC[C@@H]1F"
reading = 8.96


Hey, quick one: what's pIC50 for each of these?
1. Cn1cnnc1[C@]1(c2cccc(NC(=O)c3cc(CNCC4CCCC4)cn4c(Cl)cnc34)c2)C[C@H](C)C1
2. Cn1cnnc1[C@]1(c2cccc(NC(=O)c3cc(CN[C@H]4CCC(F)(F)C4)c4[nH]ccc4n3)c2)C[C@H](CC#N)C1

[9.05, 8.91]
